# Test system: DeltatarO mutant
# Experiment summary: S. aureus survival, RN4220 and DeltatarO strains – OD600, teichoic acid synthesis inhibitors, primary screen (AID 463173)
# Experimental conditions: S. aureus RN4220 wild type/DeltatarO growth, OD600, 18 h, active compounds read low, screened at 18.75 µg/mL (by protocol)
Among all 52,000 compounds or so, about 4,300 (8.3%) were called active. The sample as a whole holds a higher share of actives than the screen did.
Reported metric: survival (%)
# unit: % | format: bare number

Supply measured survival of Cc1oc2ccc(O)c(CN3CCN(C)CC3)c2c1C(=O)Nc1cccc(C(F)(F)F)c1 in your reply. 81

Supply measured survival of Cc1oc2ccc(O)c(CN3CCN(Cc4ccccc4)CC3)c2c1C(=O)Nc1cccc(Cl)c1C in your reply. 72

Supply measured survival of Cc1oc2ccc(O)c(CN(C)Cc3ccccc3)c2c1C(=O)Nc1cccc(Cl)c1C in your reply. 11

Supply measured survival of Cc1oc2ccc(O)c(CN(C)Cc3ccccc3)c2c1C(=O)Nc1cccc(C(F)(F)F)c1 in your reply. 6

###

# Test system: DeltatarO mutant
# Experiment summary: S. aureus survival, RN4220 and DeltatarO strains – OD600, teichoic acid synthesis inhibitors, primary screen (AID 463173)
# Experimental conditions: S. aureus RN4220 wild type/DeltatarO growth, OD600, 18 h, active compounds read low, screened at 18.75 µg/mL (by protocol)
The whole screen tested about 52,000 compounds, of which about 4,300 (8.3%) were called active. Shown is part of a subset that was picked to be rich in actives.
Labelling: survival reported below 80% becomes TRUE; at or above becomes FALSE.

Check out these entries, answers already filled in.
CCOc1ccc(NC(=O)c2cc(=O)c3ccc(C)c(C)c3o2)cc1	TRUE
Cc1ccc2c(=O)cc(C(=O)Nc3ccc(S(=O)(=O)N(C)c4ccccc4)cc3)oc2c1C	TRUE
Cc1nn(CCC(=O)Nc2cc(F)ccc2F)c(=O)c2nn(-c3ccccc3)c(C)c12	FALSE
CC1CCCCC1NC(=O)CSc1nncn1N (stereo unspecified)	FALSE
Cc1nc2nc(SCC(=O)NCCc3ccc(Cl)cc3)nn2c(C)c1Cc1ccccc1	TRUE
COc1ccc(CCNC(=O)CSc2nc3nc(C)c(Cc4ccc(C)cc4)c(C)n3n2)cc1OC	TRUE

# check: survival < 80% for CCN(CC)CCCNC(=O)CSc1nc2nc(C)c(Cc3c(F)cccc3Cl)c(C)n2n1 FALSE

# check: survival < 80% for CCCCNC(=O)CSc1nc2nc(C)c(Cc3c(F)cccc3Cl)c(C)n2n1 TRUE

# check: survival < 80% for Cc1nc2nc(SCC(=O)NCCc3ccc(Cl)cc3)nn2c(C)c1Cc1ccccc1Cl FALSE

# check: survival < 80% for Cc1nc2nc(SCC(=O)NCCc3ccccc3)nn2c(C)c1Cc1c(F)cccc1Cl TRUE

# check: survival < 80% for COc1ccc(OC)c(NC(=O)c2cc(=O)c3c(C)cc(C)cc3o2)c1 TRUE

# check: survival < 80% for COC(=O)c1ccccc1NC(=O)c1cc(=O)c2ccc(C)c(C)c2o1 TRUE

###

# Test system: DeltatarO mutant
# Experiment summary: S. aureus survival, RN4220 and DeltatarO strains – OD600, teichoic acid synthesis inhibitors, primary screen (AID 463173)
# Experimental conditions: S. aureus RN4220 wild type/DeltatarO growth, OD600, 18 h, active compounds read low, screened at 18.75 µg/mL (by protocol)
About 4,300 (8.3%) of roughly 52,000 compounds were called active. Many of the other results were omitted from the sample, so actives are more common in it than they were.
Parameter survival: see the listing below.
# unit: % | format: bare number

Record excerpt, results attached:
COc1ccc(Cn2nnnc2C(C(C)C)N2CCc3ccccc32)cc1 (stereo not drawn)	82
CCN(CC)CCCNC(=O)CCc1c(C)n(CC)c2cc(-c3ccccc3OC)nn2c1=O	92

Supply measured survival of Cc1ccc(-n2ncc(C(=O)N3CCN(C4CCCCC4)CC3)c2C2CCN(C(=O)OC(C)(C)C)CC2)cc1 in your reply. 82

Supply measured survival of COc1ccc(C2CC(=O)c3cc(-c4nc(-c5ccc(C)cc5)cs4)c(=O)[nH]c3C2)cc1 (stereo not drawn) in your reply. 76

Supply measured survival of COc1ccc(NC(=O)CN2CCC(n3c(C)nc4cc(F)ccc43)CC2)c(OC)c1 in your reply. 104

Supply measured survival of COc1ccc(NC(=O)CSc2nc(-c3ccco3)cc(C(F)(F)F)n2)c(OC)c1 in your reply. 56

Supply measured survival of COc1ccc(NC(=O)CCCSc2nc(-c3ccco3)cc(C(F)(F)F)n2)c(OC)c1 in your reply. 16

Supply measured survival of O=C(c1cc(S(=O)(=O)N2CCCC2)c[nH]1)N1CCN(c2cccc(Cl)c2)CC1 in your reply. 98

Supply measured survival of CCc1ccc(S(=O)(=O)Nc2ccc3c(c2)sc(=O)n3C)cc1 in your reply. 91

Supply measured survival of Cc1[nH]c2ccc(-c3nnc(SCC(=O)N4CCc5ccccc54)o3)cc2c1C in your reply. 84

Supply measured survival of CCc1cccc(NC(=O)Cn2c(C(=O)OC)cc3occc32)c1 in your reply. 92

Supply measured survival of CCOC(=O)C1CCN(c2nc3c(S(=O)(=O)c4ccccc4)nnn3c3ccc(Cl)cc23)CC1 in your reply. 112
